Below, each entry is listed alongside its reported IC50.
# Test system: HTT mRNA
# Measurement notes: Gene panel canonical junction qPCR assay, decrease in CJ mRNA, Table 3
# Type: cell-based
# Test conditions: decrease in CJ mRNA levels, canonical junction qPCR, gene panel

compound="Cn1cc2cc(NC(=O)c3ccc(N4CCC(N(C(=O)OC(C)(C)C)C5CC5)CC4)c4cn(C)nc34)cc(CN)c2n1 [Compound 815]" result="> 10 µM"
compound="Cc1cn2c(N3CCC(NC4CC4)CC3)ccc(C(=O)Nc3cc(CO)c4nn(C)cc4c3)c2n1 [Compound 859]" result="1 to 10 µM"
compound="COc1nc2c(C(=O)Nc3cc(F)c4nn(C)cc4c3)ccc(N3CCN4CCCC[C@H]4C3)c2s1 [Compound 746]" result="0.1 to 1 µM"
compound="Cc1c2cc(NC(=O)c3ccc(N4CCC(NC5CC5)CC4)c4cn(C)nc34)cc(CNS(C)(=O)=O)c2nn1C [Compound 869]" result="> 10 µM"
compound="COc1nc2c(C(=O)Nc3cc4cn(C)nc4cc3OC)ccc(N3C[C@H](C)N[C@@H](C)C3)c2s1 [Compound 671]" result="> 10 µM"
compound="CCNC1CCN(c2ccc(C(=O)Nc3cc(CS(=O)(=O)N(C)C)c4nn(C)cc4c3)c3nn(C)cc23)CC1 [Compound 874]" result="> 10 µM"

Query :: Any idea what its IC50 is? The compound is COc1cc2c(N3CCC(NC4CC4)CC3)ccc(C(=O)Nc3cc(F)c4nc(C)cn4c3)n2n1 [Compound 689]
Result :: < 0.1 µM

Query :: Any idea what its IC50 is? The compound is Cc1cn2nc(NC(=O)c3c(F)cc(N4CCC(NC5CC5)CC4)c4nc(C)sc34)cc(C)c2n1 [Compound 665]
Result :: 0.1 to 1 µM

Query :: Any idea what its IC50 is? The compound is COc1nc2c(C(=O)Nc3ccc4nn(C)cc4c3OC)ccc(N3C[C@H](C)N[C@@H](C)C3)c2s1 [Compound 729]
Result :: 1 to 10 µM

Query :: Any idea what its IC50 is? The compound is COc1nc2c(C(=O)Nc3cc4cn(C)nc4cc3OC)ccc(N3CCC(NC4CC4)CC3)c2o1 [Compound 681]
Result :: 0.1 to 1 µM

Query :: Any idea what its IC50 is? The compound is COc1nc2c(C(=O)Nc3cc(OC)c4nn(C)cc4c3)ccc(N3C[C@H](C)N[C@@H](C)C3)c2s1 [Compound 784]
Result :: 0.1 to 1 µM

Query :: Any idea what its IC50 is? The compound is COc1nc2c(C(=O)Nc3cc(F)c4nn(C)cc4c3)ccc(N3CCN[C@@H](C)C3)c2s1 [Compound 766]
Result :: < 0.1 µM

Query :: Any idea what its IC50 is? The compound is COc1nc2c(C(=O)Nc3cc(CO)c4nn(C)cc4c3)ccc(N3CCC(NC4CC4)CC3)c2s1 [Compound 862]
Result :: 0.1 to 1 µM

Query :: Any idea what its IC50 is? The compound is COC(=O)NCc1nc(C)cn2cc(NC(=O)c3ccc(N4CCC(NC5CC5)CC4)c4cn(C)nc34)nc12 [Compound 807]
Result :: > 10 µM

Query :: Any idea what its IC50 is? The compound is Cc1cn2cc(NC(=O)c3ccc(N4CCC(NC5CC5)CC4)c4cn(C)nc34)nc2c(CN2CCCS2(=O)=O)n1 [Compound 774]
Result :: > 10 µM

Query :: Any idea what its IC50 is? The compound is COc1nc2c(C(=O)Nc3ccc4nn(C)cc4c3C(C)=O)ccc(N3C[C@H](C)N[C@@H](C)C3)c2s1 [Compound 808]
Result :: > 10 µM

Query :: Any idea what its IC50 is? The compound is COc1nc2c(C(=O)Nc3cc(CNS(C)(=O)=O)c4nn(C)cc4c3)ccc(N3CCC(NC4CC4)CC3)c2s1 [Compound 843]
Result :: > 10 µM
